Reference for the values: patent US20190059368A1

Test system: C. fragariae
Protocol: Direct bioautography, antifungal
Format: cell-based, Colletotrichum fragariae
Setup conditions: Colletotrichum fragariae; 2 mM; 4 μl spotted (2 μl of the positive controls); average of 2 assays; read-out: zones of inhibition
Returns True if the recorded zone of inhibition at 2000 µM is greater than or equal to 6 mm, and False otherwise.

Below are worked cases with known answers.
Compound	Target entity	Group label
O=C1C2CC=CCC2C(=O)N1SC(Cl)(Cl)Cl (stereo not drawn)	C. fragariae	True
CCCCNC(=O)n1c(NC(=O)OC)nc2ccccc21	C. fragariae	True
COc1cc(/C=C\c2ccccc2)cc(OC)c1C	C. fragariae	True
COc1cc(/C=C/c2ccccc2)cc(OC)c1C	C. fragariae	False

# input for lookup
Query :: Identify whether the reported zone of inhibition at 2000 µM of the following compound is 6 mm or greater: "Cc1cc(C2CC2)nc(Nc2ccccc2)n1"
Result :: True
